B1: LINE1-full (parent)
chain: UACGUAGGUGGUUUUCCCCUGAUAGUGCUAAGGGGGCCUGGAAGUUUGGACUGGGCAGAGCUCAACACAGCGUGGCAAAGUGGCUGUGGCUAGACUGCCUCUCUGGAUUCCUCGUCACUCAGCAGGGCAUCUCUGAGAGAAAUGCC

# Variants of: B1
# Procedure text: self-cleavage, relative activity (ratio to wild type); higher = more cleavage; in vitro, sequencing; the parent is a self-cleaving ribozyme
For each entry below, report its self-cleavage value.
API note: the answer field is a bare number with no unit suffix.

(Q) Can you look up the measured self-cleavage of A78U A140G for me?
(A) 1.96

(Q) Can you look up the measured self-cleavage of U62G A138C for me?
(A) 0.09

(Q) Can you look up the measured self-cleavage of U5G A138G for me?
(A) 0.2

(Q) Can you look up the measured self-cleavage of U14G A107G for me?
(A) 1.28

(Q) Can you look up the measured self-cleavage of U96C U104C for me?
(A) 0.13

(Q) Can you look up the measured self-cleavage of U85G G106A for me?
(A) 0.29

(Q) Can you look up the measured self-cleavage of U62A U134C for me?
(A) 0.05

(Q) Can you look up the measured self-cleavage of A22G U87A for me?
(A) 0.22

(Q) Can you look up the measured self-cleavage of A77G U100C for me?
(A) 2.88

(Q) Can you look up the measured self-cleavage of A78G A107G for me?
(A) 1.26

(Q) Can you look up the measured self-cleavage of C37A A65G for me?
(A) 0.01

(Q) Can you look up the measured self-cleavage of U23C U81C for me?
(A) 1.41

(Q) Can you look up the measured self-cleavage of U46G A78G for me?
(A) 0.6

(Q) Can you look up the measured self-cleavage of G41U A129G for me?
(A) 1.03

(Q) Can you look up the measured self-cleavage of G10U for me?
(A) 1.26

(Q) Can you look up the measured self-cleavage of A77U A141C for me?
(A) 1.32

(Q) Can you look up the measured self-cleavage of U46C A129C for me?
(A) 1.99

(Q) Can you look up the measured self-cleavage of A24U U119A for me?
(A) 1.09

(Q) Can you look up the measured self-cleavage of U96A U115C for me?
(A) 0.05

(Q) Can you look up the measured self-cleavage of G41A U134C for me?
(A) 1.15

(Q) Can you look up the measured self-cleavage of G25C C116U for me?
(A) 1.52

(Q) Can you look up the measured self-cleavage of U29G U134A for me?
(A) 1.41

(Q) Can you look up the measured self-cleavage of U23C U81A for me?
(A) 1.85

(Q) Can you look up the measured self-cleavage of U5C U112A for me?
(A) 1.15

(Q) Can you look up the measured self-cleavage of A94G A140U for me?
(A) 0.33

(Q) Can you look up the measured self-cleavage of U14C G74A for me?
(A) 0.96

(Q) Can you look up the measured self-cleavage of A42U U119C for me?
(A) 1.73

(Q) Can you look up the measured self-cleavage of U23A U96A for me?
(A) 0.08

(Q) Can you look up the measured self-cleavage of C110U U132C for me?
(A) 1.45

(Q) Can you look up the measured self-cleavage of U115G G125U for me?
(A) 0.54

(Q) Can you look up the measured self-cleavage of U104A U132C for me?
(A) 1.08

(Q) Can you look up the measured self-cleavage of A6U U46A for me?
(A) 1.07

(Q) Can you look up the measured self-cleavage of U73C A124U for me?
(A) 1.5

(Q) Can you look up the measured self-cleavage of G49U U96C for me?
(A) 0.11

(Q) Can you look up the measured self-cleavage of G40A U62C for me?
(A) 0.04

(Q) Can you look up the measured self-cleavage of A64G C84U for me?
(A) 0.1

(Q) Can you look up the measured self-cleavage of A6U G126U for me?
(A) 1.16

(Q) Can you look up the measured self-cleavage of U1C U26G for me?
(A) 0.72

(Q) Can you look up the measured self-cleavage of G58C G72U for me?
(A) 0.02

(Q) Can you look up the measured self-cleavage of U14C G58A for me?
(A) 0.06

(Q) Can you look up the measured self-cleavage of A30G G97A for me?
(A) 0.42

(Q) Can you look up the measured self-cleavage of U14G U47C for me?
(A) 1.02

(Q) Can you look up the measured self-cleavage of U1A A31U for me?
(A) 1.11

(Q) Can you look up the measured self-cleavage of A2U A79G for me?
(A) 1.45

(Q) Can you look up the measured self-cleavage of A57U A117G for me?
(A) 0.09

(Q) Can you look up the measured self-cleavage of G72A U85A for me?
(A) 0.07
